Entry source: PubChem BioAssay (NCI)

So I've got a bunch of molecules here, and I need their growth inhibition values.
Test: NCI Yeast Anticancer Drug Screen. Data for the sgs1 mgt1 strain (AID 161);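 also: 0% = growth of cultures given vehicle only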
Details: S. cerevisiae sgs1 mgt1 strain, stronger effect = higher value; at 50.0 µM unless noted
This is part of a sample that, as a whole, favours compounds with a hit. Of some 79,000 tested, about 15% had one in any assay. Where a SMILES comes first, the peptide text is derived from it. [ ]: non-standard residue; d: D form. The star is where a group is joined. ξ: configuration not given here. Cbz = O=C(OCc1ccccc1)*; ξK = NCCCCC(N)C(=O)O
Write down the numeric answer in % and omit the unit.

Please fill in: growth inhibition reported for Oc1ccc2ccccc2c1/C=C/c1ccc2c(Br)cc(Br)c(O)c2n1 = 28.7

Please fill in: growth inhibition reported for Cc1cccc(C(=O)OCC2CCCO2)c1 (configuration not stated) = 8.15

Please fill in: growth inhibition reported for Cc1[nH]c(N)nc(=S)c1CCCNc1ccccc1 = 6.8

Please fill in: growth inhibition reported for O=C(N[C@@H](CSSC[C@H](NC(=O)OCc1ccccc1)C(=O)O)C(=O)O)OCc1ccccc1 = 9.2

Please fill in: growth inhibition reported for O=C(O)/C=C/c1ccc(OS(=O)(=O)O)cc1 = -14.9

Please fill in: growth inhibition reported for COCCCC(=O)CNC(C)C = -8.75

Please fill in: growth inhibition reported for CCOC(=O)c1cnc2sc3ccc4ccccc4c3n2c1=O = 61

Please fill in: growth inhibition reported for BrC1(Br)C2CCCCCCC21 (configuration not stated) = 3.15

Please fill in: growth inhibition reported for Cc1cc(C)c(-c2c(C)cc(C)c(C(=O)c3ccc([N+](=O)[O-])cc3)c2C)c(C)c1C(=O)c1ccc([N+](=O)[O-])cc1 = 11.8

Please fill in: growth inhibition reported for CCOc1ccccc1/C=C1\N=C(c2ccc([N+](=O)[O-])cc2)OC1=O = 38.7

Please fill in: growth inhibition reported for CC(=O)OC1CCC2(C)C(CCC3C2C(=O)C(OC(C)=O)C2(C)C3CC3OC4(CCC(C)CO4)C(C)C32)C1 (configuration not stated) = -11.2

Please fill in: growth inhibition reported for CCOC(=O)C1(C#N)C(C#N)(C#N)C1(CC)CC (configuration not stated) = -1.55

Please fill in: growth inhibition reported for COC1OC(CO)C(O)C(O)C1OS(=O)(=O)c1ccc(C)cc1 (configuration not stated) = -10.1

Please fill in: growth inhibition reported for CCC(C)(O)c1cn(-c2ccc(Cl)cc2)nn1 (configuration not stated) = -4.4

Please fill in: growth inhibition reported for CC(C)=CC1C(C(=O)Oc2ccccc2C(C)C)C1(C)C (configuration not stated) = 2.6

Please fill in: growth inhibition reported for CC1=C(C)CC2(CCCCC2=O)S(=O)C1 (configuration not stated) = -9.85

Please fill in: growth inhibition reported for CCCCCCCCC(=O)NCO = -21.4

Please fill in: growth inhibition reported for O=Nc1ccc2ccccc2c1N=Nc1ccccc1C(=O)O = 45.6

Please fill in: growth inhibition reported for NCC(=O)NC(CCCCNC(=O)OCc1ccccc1)C(=O)O (configuration not stated) (H-Gly-[ξK](Cbz)-OH) = -10.7

Please fill in: growth inhibition reported for CC(=O)OC1CCC2(C)C3CCC4(C)C(C(C)CCCC(C)C)CCC4C3C3CC32C1 (configuration not stated) = 29.1

Please fill in: growth inhibition reported for CC[N+](CC)(CC)CCOc1nc(OCC[N+](CC)(CC)CC)nc(OCC[N+](CC)(CC)CC)n1 = 10.3

Please fill in: growth inhibition reported for O=C(N=C(Oc1ccccc1)Oc1ccccc1)N=C(Oc1ccccc1)Oc1ccccc1 = 8.4

Please fill in: growth inhibition reported for CSc1cccc(NC(=S)NC(=O)c2ccccc2)c1 = -0.65

Please fill in: growth inhibition reported for O=C(O)CN(CCO)CCN(CC(=O)O)CC(=O)O.[Fe+2] = -18.5

Please fill in: growth inhibition reported for Cc1ccc(S(=O)(=O)NC(=O)NNc2ccc(F)cc2)cc1 = 1.65

Please fill in: growth inhibition reported for O=COCCCOCCCOc1ccccc1 = -9.35

Please fill in: growth inhibition reported for O=C(OCc1ccccc1)C1CCN1C(c1ccccc1)c1ccccc1 (configuration not stated) = 5.5

Please fill in: growth inhibition reported for CCOc1ccccc1NC(=O)/C(=N\NC(C)(C)C)C1C(=O)Nc2ccccc2S1=O (configuration not stated) = -9.85

Please fill in: growth inhibition reported for O=C(C[n+]1cc(Br)cc2ccccc21)c1ccc(F)cc1 = 37.3

Please fill in: growth inhibition reported for CO/C(=N\N=C\c1ccc(C(F)(F)F)cc1)c1ccncc1 = 35.3

Please fill in: growth inhibition reported for C(#Cc1ccccc1)CC#Cc1ccccc1 = -11.7

Please fill in: growth inhibition reported for CC(C)(Oc1ccc(C(=O)c2ccc(Cl)cc2)cc1Cl)C(=O)N1CCN(c2ccccc2)CC1 = -0.85

Please fill in: growth inhibition reported for COc1cccc(/C=C/C(C)=N/NC(N)=O)c1 = 5.5

Please fill in: growth inhibition reported for ClC1=C(Cl)C(Cl)(Cl)c2c3c(c4c(c21)C(Cl)(Cl)C(Cl)=C4Cl)C(Cl)(Cl)C(Cl)=C3Cl = 5.15

Please fill in: growth inhibition reported for COC(=O)CCC(NC(=S)N/N=C(\C)c1ccco1)C(=O)OC (configuration not stated) = 0.25

Please fill in: growth inhibition reported for CCCCCCCC/C=C\CCCCCCCC(=O)NC(C)(C)C(=O)O = -9.5

Please fill in: growth inhibition reported for CCc1ccc2nccc(NCCCN(C)C)c2c1[N+](=O)[O-] = 6.7
